Biological target: Cyclin-dependent kinase inhibitor 1 (Homo sapiens)
Experiment: Selectivity ratio between p21(-/-) and p21(+/+) isogenic cell lines
Type: functional
// values below are reported Ratio
Parameter Measured: Ratio

Structure As Smiles: COc1cc(-c2nc(O)c3c4c(sc3n2)CCC4)cc(OC)c1OC
Study System: Cyclin-dependent kinase inhibitor 1 (Homo sapiens)
Parameter Measured: Ratio
Result Qualifier: >
Numeric Result: 5.8
--
Structure As Smiles: CSc1ccc(-c2nc(O)c3c4c(sc3n2)CCCC4)cc1
Study System: Cyclin-dependent kinase inhibitor 1 (Homo sapiens)
Parameter Measured: Ratio
Result Qualifier: >
Numeric Result: 4.9
--
Structure As Smiles: COc1ccc(-c2nc(O)c3c4c(sc3n2)CCC4)cc1
Study System: Cyclin-dependent kinase inhibitor 1 (Homo sapiens)
Parameter Measured: Ratio
Result Qualifier: =
Numeric Result: 8.3
--
Structure As Smiles: CCOc1ccc(-c2nc(O)c3c4c(sc3n2)CCCC4)cc1
Study System: Cyclin-dependent kinase inhibitor 1 (Homo sapiens)
Parameter Measured: Ratio
Result Qualifier: >
Numeric Result: 2.4
--
Structure As Smiles: COc1cc(-c2nc(O)c3c4c(sc3n2)CCCC4)cc(OC)c1OC
Study System: Cyclin-dependent kinase inhibitor 1 (Homo sapiens)
Parameter Measured: Ratio
Result Qualifier: >
Numeric Result: 8.7
--
Structure As Smiles: COc1ccc(-c2nc(O)c3c4c(sc3n2)CCCC4)cc1
Study System: Cyclin-dependent kinase inhibitor 1 (Homo sapiens)
Parameter Measured: Ratio
Result Qualifier: >
Numeric Result: 8.5
--
Structure As Smiles: COc1cc(-c2nc(O)c3c4c(sc3n2)CCCCC4)cc(OC)c1OC
Study System: Cyclin-dependent kinase inhibitor 1 (Homo sapiens)
Parameter Measured: Ratio
Result Qualifier: =
Numeric Result: 8.7
--
Structure As Smiles: COc1ccc(-c2nc(O)c3c4c(sc3n2)CCCC4)c(F)c1
Study System: Cyclin-dependent kinase inhibitor 1 (Homo sapiens)
Parameter Measured: Ratio
Result Qualifier: =
Numeric Result: 19
--
Structure As Smiles: O=C(c1cccs1)c1cnn2c(-c3cccc(NC(=O)C4CC4)c3)ccnc12
Study System: Cyclin-dependent kinase inhibitor 1 (Homo sapiens)
Parameter Measured: Ratio
Result Qualifier: =
Numeric Result: 30

Where do the numbers come from? From ChEMBL document CHEMBL1142782.
